- Assay protocol: Solubility in PBS
- Format: physicochemical
- Test parameters: Solubility (uM)
Measurement label: Solubility (µM)
Numeric only. Scale: µM

Below: 4 molecules and their reported Solubility.
CC(=O)N1CCC[C@]12CC=CCCCC1(CCCC=CCCCOC(=O)N3CC[C@@](C(=O)N[C@@H](Cc4ccccc4Cl)C(=O)N[C@@H](Cc4csc5ccccc45)C(=O)N[C@@H](CO)C(N)=O)(C3)NC(=O)[C@H](CO)NC(=O)[C@H](Cc3ccccc3)NC(=O)[C@H](C)NC(=O)[C@H](C)NC(=O)[C@H](CC(=O)O)NC(=O)[C@H](CC(=O)O)NC1=O)NC(=O)[C@H](CC(C)(C)C)NC(=O)[C@H](CC(=O)O)NC2=O (some centres unmarked) : 48
COCCOCCOCCOCCOCCOCCC(=O)NCCCC[C@@H]1NC(=O)[C@H](C)NC(=O)[C@H](CC(=O)O)NC(=O)[C@H](CC(=O)O)NC(=O)C2(CCCC=CCCCOC(=O)N3CC[C@@](C(=O)N[C@@H](Cc4ccsc4)C(=O)N[C@@H](Cc4csc5ccccc45)C(=O)N[C@@H](CCC(N)=O)C(N)=O)(C3)NC(=O)[C@H](CC(N)=O)NC(=O)[C@H](Cc3ccccc3)NC1=O)CCCC=CC[C@]1(CCCN1C(C)=O)C(=O)N[C@@H](CC(=O)O)C(=O)N[C@@H](CC(C)(C)C)C(=O)N2 (some centres unmarked) : 31
CC(=O)N1CCC[C@]12CC=CCCCC1(CCCC=CCCCOC(=O)N3CC[C@@](C(=O)N[C@@H](Cc4ccccc4Cl)C(=O)N[C@@H](Cc4csc5ccccc45)C(=O)N[C@@H](CCC(N)=O)C(N)=O)(C3)NC(=O)[C@H](CC(C)C)NC(=O)[C@H](Cc3ccccc3)NC(=O)[C@H](C)NC(=O)[C@H](C)NC(=O)[C@H](CCC(=O)O)NC(=O)[C@H](CC(=O)O)NC1=O)NC(=O)[C@H](CC(C)(C)C)NC(=O)[C@H](CC(=O)O)NC2=O (some centres unmarked) : 43
CC(=O)N1CCC[C@]12CC=CCCCC1(CCCC=CCCCOC(=O)N3CC[C@@](C(=O)N[C@@H](Cc4ccsc4)C(=O)N[C@@H](Cc4csc5ccccc45)C(=O)N[C@H](C(N)=O)[C@@H](C)O)(C3)NC(=O)[C@H](CC(N)=O)NC(=O)[C@H](Cc3ccccc3)NC(=O)[C@H](C)NC(=O)[C@H](C)NC(=O)[C@H](CC(=O)O)NC(=O)[C@H](CC(=O)O)NC1=O)NC(=O)[C@H](CC(C)(C)C)NC(=O)[C@H](CC(=O)O)NC2=O (some centres unmarked) : 47

Kindly review the next molecule as well.
Data request: // fetch Solubility given entry CC(=O)N1CCC[C@]12CC=CCCCC1(CCCC=CCCCOC(=O)N3CC[C@@](C(=O)N[C@@H](Cc4ccsc4)C(=O)N[C@@H](Cc4csc5ccccc45)C(=O)N[C@@H](CCC(N)=O)C(=O)N[C@@H](CCCCNC(=O)c4ccc5ccccc5c4)C(N)=O)(C3)NC(=O)[C@H](CC(N)=O)NC(=O)[C@H](Cc3ccccc3)NC(=O)[C@H](C)NC(=O)[C@H](C)NC(=O)[C@H](CC(=O)O)NC(=O)[C@H](CC(=O)O)NC1=O)NC(=O)[C@H](CC(C)(C)C)NC(=O)[C@H](CC(=O)O)NC2=O (some centres unmarked)
Data returned: 41
